Biological target: T1, human RANK-L (human, UniProt O14788 140-317, limits assumed)
T1 construct: Soluble protein, used coated, biotinylated or labelled in ELISA, AlphaScreen, FMAT and Biacore; also called hRANK-L; soluble human RANK-L
T1 sequence (looked up): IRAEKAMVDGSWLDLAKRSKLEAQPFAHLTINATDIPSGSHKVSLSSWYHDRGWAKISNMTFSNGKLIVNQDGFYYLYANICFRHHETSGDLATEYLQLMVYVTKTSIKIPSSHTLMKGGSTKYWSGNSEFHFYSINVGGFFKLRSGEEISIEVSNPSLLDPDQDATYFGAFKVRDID
Test: AlphaScreen, biotin-hRANK-L / RANK-huFc beads
pIC50: −log10 of the molar value.
Property name: pIC50

I. RANKL1 (VHH, not shown: c-myc and His6 tags) VHH: EVQLVESGGGLVQAGGSLRLSCAVSGRTFSSSTMAWFRQPPGGERDFVASISTSGTRTLYADSVKGRFTISRDNAKSTGYLQMNSLKPEDTAVYFCAAVNRRGWEFWRLASGYDYWGLGAQVTVSS
II. RANKL21 (VHH, not shown: c-myc and His6 tags) VHH: EVQLVESGGGLVQAGGSLRLSCVASRRTFNSYAVGWFRQVPGEERDFVAAISTGSVTIYADSVKGRFTISRDNAKNTVYLQMNSLKPEDTAVYYCAAGNREPYLRQYTASNPYDYWGQGTQVTVSS
*Q* Please let me know which one, I or II , has a lower measured pIC50 value. Answer with the label corresponding to your selection.
*A* II
(II: 8.80, I: 9.13)
